Origin of values: patent US20240415914A1

// values below are reported Stability in AB White, 8° C. (content by LCMSMS)
test: Stability of cannabinoid and Vitamin E components of Beverage 1 (AB White) stored at 8° C. and 21-25° C., LCMSMS over 570 days; assay type: physicochemical; conditions: beverage stored at 8° C., day 29
Readout Kind: Stability in AB White, 8° C. (content by LCMSMS)

Molecule | Reported Value
C=C(C)[C@@H]1CCC(C)=C[C@H]1c1c(O)cc(CCC)cc1O [CBDV, cannabidivarin] | 0.151 µg/mL
CCCCCc1cc(O)c2c(c1)OC1(C)CCC3C1C2C3(C)C (stereo not drawn) [CBL, cannabicyclol] | 0.547 µg/mL
CCCCCc1cc(O)c2c(c1)OC(C)(C)[C@@H]1CCC(C)=C[C@@H]21 [D9 THC, delta-9-tetrahydrocannabinol, reference compound] | 12.25 µg/mL
